Biological target: T1, human GITR-Fc fusion protein (human, UniProt Q9Y5U5 26-162)
T1 construct: extracellular domain; also called hGITR-Fc; recombinant human GITR-Fc; not shown: Fc part
T1 sequence (looked up): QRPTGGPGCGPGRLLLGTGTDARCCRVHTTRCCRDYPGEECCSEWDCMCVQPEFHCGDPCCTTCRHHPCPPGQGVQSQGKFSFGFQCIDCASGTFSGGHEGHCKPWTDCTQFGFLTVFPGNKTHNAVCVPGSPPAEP
Assay: SPR (BIAcore 2000), mAb captured on anti-mouse Fc, antigen injected
Attribute measured: koff (s⁻¹)
The answer is to be given in s⁻¹; state only the numeric part.

[
  {
    "Binder": "anti-GITR antibody clone 827 (antibody, V domains shown, Murine hybridoma antibody; also called 827-GITR2; 827 GITR-2) VH: EVQLQQSGTVLARPGASVKMSCETSGYSFTTYWIHWIKQRPGQGLEWIATIYPGNSDAGYNQKFRGKAKLTAVTSASTAYMELSSLTNEDSAVYYCTRSSTYPHFDYWGQGTTLTVSS VL: DILLTQSPAILSVSPGERVSFSCRASQSIGTSIHWYQQRTNDSPRLLIKYASESISGIPSRFSGSGSGTDFTLNINSVESEDIADYYCQQTNNWPLTFGAGTKLELK",
    "koff, s⁻¹": 0.000177
  }
]

Attention now shifts to the item below.
koff measured on anti-GITR antibody clone 1718 (antibody, V domains shown, Murine hybridoma antibody; also called 1718-GITR2; 1718 GITR-2) VH: QVQVQQSGPELVKPGASVRISCKASDYTFTNYYIHWVRQRPGQGLEWLGWIYPGKGYTNYNEKFKGKATLTADKSSSTAYMQFSSLTSEDSAVYFCASGYGNYYFPYWGQGTLVTVSA VL: IQMTQSSSYLSVSLGGRVTITCKASDHIKNWLAWYQQKPGNVPRLLMSAATSLETGFPSRFSGSGSGKDFTLTITSLQTEDVATYYCQQYWSTPWTFGGGTKLEIK = 0.00038
